Ref: ChEMBL document CHEMBL1135744

Values of IC50 reported for Adenosine kinase (Rattus norvegicus) appear below.

SMILES STRUCTURE	MEASURED TARGET	IC50
Nc1ncnc(C#Cc2ccc(N3CCOCC3)nc2)c1Cc1cccc(Br)c1	Adenosine kinase (Rattus norvegicus)	22 nM
Nc1ncnc(C#Cc2ccc(N3CCOCC3)nc2)c1CCCc1cccnc1	Adenosine kinase (Rattus norvegicus)	4 nM
CN(Cc1ccc(Cl)cc1)c1c(N)ncnc1C#Cc1ccc(N2CCOCC2)nc1	Adenosine kinase (Rattus norvegicus)	106 nM
Nc1ncnc(C#Cc2ccc(N3CCOCC3)nc2)c1CCCCc1ccccc1	Adenosine kinase (Rattus norvegicus)	45 nM

----------
Molecular target: Adenosine kinase (Rattus norvegicus, UniProt Q64640)
Sequence (Q64640 whole entry): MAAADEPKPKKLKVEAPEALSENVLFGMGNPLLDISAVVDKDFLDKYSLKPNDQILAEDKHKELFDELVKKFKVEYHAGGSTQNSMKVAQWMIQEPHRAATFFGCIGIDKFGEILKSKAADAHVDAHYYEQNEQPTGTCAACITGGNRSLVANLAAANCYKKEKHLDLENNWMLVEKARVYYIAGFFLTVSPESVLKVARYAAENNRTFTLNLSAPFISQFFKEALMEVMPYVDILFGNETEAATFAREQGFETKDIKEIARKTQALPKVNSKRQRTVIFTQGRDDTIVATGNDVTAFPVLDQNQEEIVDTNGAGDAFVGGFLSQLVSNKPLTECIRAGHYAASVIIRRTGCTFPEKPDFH
pIC50: −log10 of the molar value.
pIC50 reference

SMILES STRUCTURE	MEASURED TARGET	pIC50
Nc1ncnc(C#Cc2ccc(N3CCOCC3)nc2)c1CCCc1ccccc1Cl	Adenosine kinase (Rattus norvegicus, UniProt Q64640)	8.60
Nc1ncnc(C#Cc2ccc(N3CCOCC3)nc2)c1CCCc1cccc(Br)c1	Adenosine kinase (Rattus norvegicus, UniProt Q64640)	8.46
Nc1ncnc(C#Cc2ccc(N3CCOCC3)nc2)c1CN1CCc2ccccc2C1	Adenosine kinase (Rattus norvegicus, UniProt Q64640)	7.40
CN(Cc1ccc2ccccc2c1)c1c(N)ncnc1C#Cc1ccc(N2CCOCC2)nc1	Adenosine kinase (Rattus norvegicus, UniProt Q64640)	6.61
CN(c1cccc(Br)c1)c1c(N)ncnc1C#Cc1ccc(N2CCOCC2)nc1	Adenosine kinase (Rattus norvegicus, UniProt Q64640)	7.55
